target: PCSK9 (Homo sapiens, UniProt Q8NBP7, G670E/V474I); test: Assay 3 - PCSK9 LDL-C uptake assay in HepG2 cells; settings: 125 nM PCSK9, pHrodo Red-LDL, read-out: Assay 3 LDL uptake potency
Sequence (Q8NBP7 with tags, fused parts or gaps V474I/G670E): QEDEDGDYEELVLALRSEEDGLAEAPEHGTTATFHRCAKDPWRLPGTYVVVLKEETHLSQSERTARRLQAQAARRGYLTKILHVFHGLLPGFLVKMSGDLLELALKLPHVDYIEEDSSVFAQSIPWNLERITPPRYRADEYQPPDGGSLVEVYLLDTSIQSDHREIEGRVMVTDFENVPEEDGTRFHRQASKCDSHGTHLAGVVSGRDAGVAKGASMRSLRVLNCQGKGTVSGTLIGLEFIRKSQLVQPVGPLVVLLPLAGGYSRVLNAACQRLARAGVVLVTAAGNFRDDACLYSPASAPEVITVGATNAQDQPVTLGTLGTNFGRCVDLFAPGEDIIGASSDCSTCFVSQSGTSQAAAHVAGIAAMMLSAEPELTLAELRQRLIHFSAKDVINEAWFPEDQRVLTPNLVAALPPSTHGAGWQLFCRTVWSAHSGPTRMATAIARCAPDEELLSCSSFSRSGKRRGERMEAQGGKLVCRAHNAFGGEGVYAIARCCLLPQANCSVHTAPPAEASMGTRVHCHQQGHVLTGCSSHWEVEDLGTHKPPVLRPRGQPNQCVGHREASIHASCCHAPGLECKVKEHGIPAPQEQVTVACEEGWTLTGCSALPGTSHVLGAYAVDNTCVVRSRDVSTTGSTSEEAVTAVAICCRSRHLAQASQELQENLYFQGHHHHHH
Provide the recorded pEC50 for the entries that follow.
Lab note — pEC50 values are minus log10 of concentrations in M.

// pEC50 lookup, key: "Cc1cnc(N[C@H]2CC[C@H](Nc3ccc(-n4cccc(C#N)c4=O)cn3)C2)cn1"
6.70

Try "COc1ccnn(-c2ccc(N[C@H]3CC[C@H](Nc4cnc(C)cn4)C3)nc2)c1=O" next.
6.70

Try "Cc1cnc(N[C@H]2CC[C@H](Nc3ccc(-n4cc(Cl)ccc4=O)cn3)C2)cn1" next.
6.15

Try "Cn1c(=O)n(-c2ccc(N[C@H]3CC[C@H](Nc4cnc(Cl)cn4)C3)nc2)c2ncccc21" next.
6.10

Try "Cc1cnc(N[C@H]2CC[C@H](Nc3ccc(-n4c(=O)n(C)c5cc(C#N)ccc54)cn3)C2)cn1" next.
6.52

Try "Cc1cnc(N[C@H]2CC[C@H](Nc3ccc(-n4c(=O)n(C)c5ccc(C#N)cc54)cn3)C2)cn1" next.
7.00

Try "O=c1ccc2ccccc2n1-c1ccc(N[C@H]2CC[C@H](Nc3cnc(OC(F)F)cn3)C2)nc1" next.
6.70

Try "Cc1cnc(N[C@H]2CC[C@H](Nc3ccc(-n4c(=O)n(C)c5cccnc54)cn3)C2)cn1" next.
6.70

Try "Cc1ncc(N[C@H]2CC[C@H](Nc3ccc(-n4c(=O)ccc5cccnc54)cn3)C2)nc1C" next.
7.00

Try "O=c1ccc2cccnc2n1-c1ccc(N[C@H]2CC[C@H](Nc3cnc(OC(F)F)cn3)C2)nc1" next.
7.00

Try "O=c1ccc2ccccc2n1-c1ccc(N[C@H]2CC[C@H](Nc3cnc(Cl)cn3)C2)nc1" next.
7.00

Try "Cc1cccn(-c2ccc(N[C@H]3CC[C@H](Nc4cnc(OC(F)F)cn4)C3)nc2)c1=O" next.
6.15

Try "N#Cc1cccn(-c2ccc(N[C@H]3CC[C@H](Nc4cnc(C5CC5)cn4)C3)nc2)c1=O" next.
6.30

Try "COc1cccn(-c2ccc(N[C@H]3CC[C@H](Nc4cnc(C5CC5)cn4)C3)nc2)c1=O" next.
6.70

Try "Cc1ncc(N[C@H]2CC[C@H](Nc3ccc(-n4cccc(C#N)c4=O)cn3)C2)nc1C" next.
6.15

Try "Cc1cnc(N[C@H]2CC[C@H](Nc3ccc(-n4c(=O)ccc5cccnc54)cn3)C2)cn1" next.
6.70

Try "Cc1cnc(N[C@H]2CC[C@H](Nc3ccc(-n4cccc(C(F)(F)F)c4=O)cn3)C2)cn1" next.
7.00

Try "Cc1ncc(N[C@H]2CC[C@H](Nc3ccc(-n4cc(-c5nnn[nH]5)ccc4=O)cn3)C2)nc1C" next.
7.00

Try "N#Cc1cccn(-c2ccc(N[C@H]3CC[C@H](Nc4cnc(Cl)cn4)C3)nc2)c1=O" next.
6.22

Try "Cc1cnc(N[C@H]2CC[C@H](Nc3ccc(-n4cccc(OC(F)(F)F)c4=O)cn3)C2)cn1" next.
6.70

Try "Cc1cnc(N[C@H]2CC[C@H](Nc3ccc(-n4c(=O)[nH]c5ccccc54)cn3)C2)cn1" next.
6.15

Try "O=C(O)c1ccc(=O)n(-c2ccc(N[C@H]3CC[C@H](Nc4cnc(Cl)cn4)C3)nc2)c1" next.
7.00

Try "Cn1c(=O)n(-c2ccc(N[C@H]3CC[C@H](Nc4cnc(C5CC5)cn4)C3)nc2)c2ncccc21" next.
6.10

Try "O=c1ccc(-c2nnn[nH]2)cn1-c1ccc(N[C@H]2CC[C@H](Nc3cnc(OC(F)F)cn3)C2)nc1" next.
7.00

Try "COc1cccn(-c2ccc(N[C@H]3CC[C@H](Nc4cnc(Cl)cn4)C3)nc2)c1=O" next.
6.70

Try "Cc1cccn(-c2ccc(N[C@H]3CC[C@H](Nc4cnc(Cl)cn4)C3)nc2)c1=O" next.
6.40

Try "Cc1cnc(N[C@H]2CC[C@H](Nc3ccc(-n4nccc(Cl)c4=O)cn3)C2)cn1" next.
6.30

Try "Cn1c(=O)n(-c2ccc(N[C@H]3CC[C@H](Nc4cnc(OC(F)F)cn4)C3)nc2)c2ncccc21" next.
6.15

Try "O=c1ccc(-c2ccc(F)cc2)cn1-c1ccc(N[C@H]2CC[C@H](Nc3cnc(Cl)cn3)C2)nc1" next.
6.70

Try "Cc1cnc(N[C@H]2CC[C@H](Nc3ccc(-n4c(=O)n(C)c5ccccc54)cn3)C2)cn1" next.
6.70

Try "Cc1ncc(N[C@H]2CC[C@H](Nc3ccc(-n4cccc(Cl)c4=O)cn3)C2)nc1C" next.
7.00
